target: Adenosine receptor A1 (Homo sapiens) (UniProt P30542); assay: Displacement of [125I]ABA from human adenosine A1 receptor expressed in CHOK1 cells relative to control; assay type: cell-based; parameters: concentration or dose not given beside the values; conditions: CHO-K1
Sequence (P30542 whole entry): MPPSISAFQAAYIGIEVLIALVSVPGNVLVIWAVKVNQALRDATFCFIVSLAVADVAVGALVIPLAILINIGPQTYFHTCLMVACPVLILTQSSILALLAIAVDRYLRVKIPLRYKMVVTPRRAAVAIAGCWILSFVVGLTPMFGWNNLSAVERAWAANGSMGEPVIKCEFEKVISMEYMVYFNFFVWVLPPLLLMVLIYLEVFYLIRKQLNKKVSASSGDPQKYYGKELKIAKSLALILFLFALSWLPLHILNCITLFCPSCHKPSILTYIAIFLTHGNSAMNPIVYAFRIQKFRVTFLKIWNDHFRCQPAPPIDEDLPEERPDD
Criterion: Activity meeting or surpassing 30%. Met: Condition met. Not met: Condition not met.

Record CCCn1c(=O)c2nc([C@H]3CC[C@H](C(=O)O)CC3)[nH]c2n(CCC)c1=O ; criterion: Activity no lower than 30%. Met?
Condition met

Record CCCn1c(=O)c2nc(C3CCC(NC(=O)OCc4ccccc4)CC3)[nH]c2n(CCC)c1=O (mixture of isomers) ; criterion: Activity no lower than 30%. Met?
Condition not met

Record CCCn1c(=O)c2nc([C@H]3CC[C@H](C(=O)N(CC)CC)CC3)[nH]c2n(CCC)c1=O ; criterion: Activity no lower than 30%. Met?
Condition met

Record CCCn1c(=O)c2nc([C@H]3CC[C@@H](NC(C)=O)CC3)[nH]c2n(CCC)c1=O ; criterion: Activity no lower than 30%. Met?
Condition met

Record CCCCC[C@]12CC[C@](c3nc4c(=O)n(CCC)c(=O)n(CCC)c4[nH]3)(CC1)CC2 ; criterion: Activity no lower than 30%. Met?
Condition not met

Record CCCn1c(=O)c2nc([C@H]3CC[C@H](NC(C)=O)CC3)[nH]c2n(CCC)c1=O ; criterion: Activity no lower than 30%. Met?
Condition met

Record CCCn1c(=O)c2nc([C@H]3CC[C@H](C(=O)N4CCOCC4)CC3)[nH]c2n(CCC)c1=O ; criterion: Activity no lower than 30%. Met?
Condition met

====

target: Adenosine receptor A3 (Homo sapiens); experiment: Displacement of [125I]ABA from human adenosine A3 receptor expressed in HEK cells; type: cell-based, HEK293
Sequence (P0DMS8 whole entry): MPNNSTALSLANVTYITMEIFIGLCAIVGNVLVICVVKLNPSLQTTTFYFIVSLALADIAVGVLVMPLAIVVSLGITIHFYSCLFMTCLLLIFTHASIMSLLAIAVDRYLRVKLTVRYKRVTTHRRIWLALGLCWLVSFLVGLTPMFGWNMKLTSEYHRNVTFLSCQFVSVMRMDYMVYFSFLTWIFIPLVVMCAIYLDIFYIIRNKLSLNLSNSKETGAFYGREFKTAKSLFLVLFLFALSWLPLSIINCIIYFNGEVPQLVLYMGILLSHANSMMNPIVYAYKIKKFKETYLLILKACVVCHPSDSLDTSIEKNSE
measured quantity: Ki

GET /values?readout=Ki&item= CCCn1c(=O)c2nc([C@]34CC[C@](C(=O)NCCC(=O)OC)(CC3)CC4)[nH]c2n(CCC)c1=O
> 10 µM

GET /values?readout=Ki&item= CCCn1c(=O)c2[nH]c([C@]34CC[C@](CCC(=O)O)(CC3)CC4)nc2n(CCC)c1=O
> 10 µM

====

test: Oral bioavailability in Beagle dog at 1 mg/kg, po; assay type: ADME, organism-based, Canis lupus familiaris; conditions: in vivo
measured quantity: bioavailability
Don't forget the unit after the value.

GET /values?readout=bioavailability&item= CCCn1c(=O)c2[nH]c([C@]34CC[C@](CCC(=O)O)(CC3)CC4)nc2n(CCC)c1=O
78%

====

target: Adenosine receptor A2a (Homo sapiens, UniProt P29274); experiment: Displacement of [125I]ZM-241385 from human adenosine A2A receptor expressed in HEK cells relative to control; assay type: cell-based; set-up: concentration or dose not given beside the values; settings: HEK293
Sequence (P29274 whole entry): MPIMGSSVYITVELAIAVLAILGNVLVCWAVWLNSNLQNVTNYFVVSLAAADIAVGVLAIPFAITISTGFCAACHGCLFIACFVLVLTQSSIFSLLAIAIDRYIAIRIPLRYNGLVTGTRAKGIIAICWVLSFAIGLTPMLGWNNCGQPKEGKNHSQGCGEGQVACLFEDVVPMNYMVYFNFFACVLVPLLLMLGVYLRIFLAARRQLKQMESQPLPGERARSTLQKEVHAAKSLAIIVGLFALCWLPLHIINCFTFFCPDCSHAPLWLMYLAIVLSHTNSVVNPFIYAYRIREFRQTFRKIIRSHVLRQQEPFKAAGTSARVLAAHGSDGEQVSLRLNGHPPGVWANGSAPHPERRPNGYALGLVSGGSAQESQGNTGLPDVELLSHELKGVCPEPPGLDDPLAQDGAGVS
measured quantity: Activity
Don't forget the unit after the value.

GET /values?readout=Activity&item= CCCn1c(=O)c2nc([C@H]3CC[C@H](NC(C)=O)CC3)[nH]c2n(CCC)c1=O
92%

GET /values?readout=Activity&item= CCCn1c(=O)c2nc([C@H]3CC[C@H](C(=O)N4CCOCC4)CC3)[nH]c2n(CCC)c1=O
99%

GET /values?readout=Activity&item= CCCn1c(=O)c2nc([C@H]3CC[C@@H](NC(C)=O)CC3)[nH]c2n(CCC)c1=O
63%

GET /values?readout=Activity&item= CCCn1c(=O)c2nc(C3CCC(NC(=O)OCc4ccccc4)CC3)[nH]c2n(CCC)c1=O (mixture of isomers)
69%

GET /values?readout=Activity&item= CCCCC[C@]12CC[C@](c3nc4c(=O)n(CCC)c(=O)n(CCC)c4[nH]3)(CC1)CC2
79%

GET /values?readout=Activity&item= CCCn1c(=O)c2nc([C@H]3CC[C@H](C(=O)N(CC)CC)CC3)[nH]c2n(CCC)c1=O
70%

GET /values?readout=Activity&item= CCCn1c(=O)c2nc([C@H]3CC[C@H](C(=O)O)CC3)[nH]c2n(CCC)c1=O
75%
